Reference source: PubChem BioAssay (NCI)

Test system: NCI-H23 lung
Assay: NCI tumour cell line growth inhibition, 48 h
observable: TGI (µM)
Please reply with the bare figure in µM and do not write the unit itself.

Prompt: Recorded TGI for "C/C(=N\Nc1ncnc2ccccc12)c1ccccn1" , please?
Response: 16.4

Prompt: Could you do the same for Cc1ccc2oc(=O)cc(C3c4ccc([nH]4)C(c4cc(=O)oc5ccc(C)cc45)c4ccc([nH]4)C(c4cc(=O)oc5ccc(C)cc45)c4ccc([nH]4)C(c4cc(=O)oc5ccc(C)cc45)c4ccc3[nH]4)c2c1 (centres undefined) , please?
Response: 1.58

Prompt: Could you do the same for "Cn1c2cc(Cl)ccc2c2ccc3c(c21)C(=O)C=CC3=O" , please?
Response: 54.4

Prompt: Could you do the same for "COc1ccc(Cn2c3c(c4c(O)cccc42)C(=O)c2ccccc2-3)cc1" , please?
Response: 22

###

Provide the recorded TGI for the entries that follow.
Tested on: HOP-92 NSCLC
Test: NCI tumour cell line growth inhibition, 48 h
Please reply with the bare figure in µM and do not write the unit itself.

Prompt: Recorded TGI for "CCNC(=O)CCCCC(=O)c1c(C)[nH]c(/C=C2\N=C(c3ccc[nH]3)C=C2OC)c1C" , please?
Response: 9.69

Prompt: Could you do the same for "CC(=O)[CH-]C(=O)c1ccccc1.CC(=O)[CH-]C(=O)c1ccccc1.CC12CC3(C)CC(C)(C1)CC([O-])(C2)C3.CC[O-].[Ti+4]" , please?
Response: 55.3

Prompt: Could you do the same for "COc1ccc2c(c1)Cc1c-2[nH]c2cc3c(cc2c1=O)OCO3" , please?
Response: 48.5

###

System: RPMI-8226 leukemia
Assay: NCI tumour cell line growth inhibition, 48 h
Provide the recorded log10(TGI) for the entries that follow.
Log10 applied to TGI; unit prior to transform: µM.

Prompt: Recorded log10(TGI) for "CCCCCCCCCCCCOC(=S)NC" , please?
Response: 1.56

Prompt: Could you do the same for "O=c1[nH]c2cc([N+](=O)[O-])c(N(CCO)CCO)c([N+](=O)[O-])c2[nH]1" , please?
Response: 1.99

Prompt: Could you do the same for "Cc1[nH]ccc2cc3nc4ccccc4c3cc12" , please?
Response: 0.59

Prompt: Could you do the same for "COC(=O)C[C@](O)(CCC(C)(C)O)C(=O)O[C@@H]1C(OC)=C[C@]23CCCN2CCc2cc4c(cc2[C@H]13)OCO4" , please?
Response: -0.15

Prompt: Could you do the same for c1cc(C2N3CCCN2CC3)ccn1 (configuration not stated) , please?
Response: 1.85

Prompt: Could you do the same for "O=C(Nc1ccccc1)OCc1nc2c([nH]1)C(=O)C=CC2=O" , please?
Response: 1.71

Prompt: Could you do the same for "N/C(=N\N=C/c1cc(Cl)cc(Cl)c1O)NO" , please?
Response: 1.60

###

Test system: CAKI-1 renal
Test: NCI tumour cell line growth inhibition, 48 h
Where a SMILES comes first, the peptide text is derived from it. Side-chain parts run from the residue outwards. The star is where a group is joined. Cbz = O=C(OCc1ccccc1)*; Boc = CC(C)(C)OC(=O)*
Provide the recorded TGI for the entries that follow.

Prompt: Recorded TGI for CC(=O)C1C(=O)C(=O)N(c2ccc([N+](=O)[O-])cc2Cl)C1=O (stereo unspecified) , please?
Response: > 100 µM

Prompt: Could you do the same for "C[N+](C)(N)Cc1csc(-c2ccc(Cl)cc2)n1" , please?
Response: > 100 µM

Prompt: Could you do the same for C[C@@H]1CCC2[C@@H](C)[C@H](OC(=O)CCC(=O)NCCNC(=O)Cc3cc(=O)oc4cc(N(C)C)ccc34)O[C@@H]3O[C@]4(C)CC[C@@H]1C23OO4 (stereo partly specified) , please?
Response: > 25.6 µM

Prompt: Could you do the same for C=CC1=C(C)C(Cc2[nH]c(/C=c3\[nH]/c(=C/C4=NC(=O)C(C)/C4=C\C)c(C)c3CCC(=O)O)c(CCC(=O)OC)c2C)NC1=O (stereo unspecified) , please?
Response: > 100 µM

Prompt: Could you do the same for "COc1ccc(CCN2CCOCC2)cc1" , please?
Response: > 100 µM

Prompt: Could you do the same for "COc1cc(CCC(=O)NS(=O)(=O)c2ccccc2)cc(OC)c1OC" , please?
Response: > 100 µM

Prompt: Could you do the same for "CC(=O)[CH-]C(=O)c1ccccc1.CC(=O)[CH-]C(=O)c1ccccc1.CC[O-].O=C1C=C([O-])C(=O)c2ccccc21.[Ti+4]" , please?
Response: > 100 µM

Prompt: Could you do the same for "Cc1cccc(NC(=O)Cc2nc3ccccc3s2)c1C" , please?
Response: > 100 µM

Prompt: Could you do the same for "CN(C)C(=O)CO/N=C1/C(c2c(O)[nH]c3ccccc23)=Nc2ccccc21" , please?
Response: > 100 µM

Prompt: Could you do the same for "c1ccc([P+](CCC[P+](c2ccccc2)(c2ccccc2)c2ccccc2)(c2ccccc2)c2ccccc2)cc1" , please?
Response: > 100 µM

Prompt: Could you do the same for "COc1ccc(CCNC(=S)/N=C\C2=C(O)c3ccccc3C2=O)cc1OC" , please?
Response: > 100 µM

Prompt: Could you do the same for "Cc1[nH]ccc2cc3nc4ccccc4c3cc12" , please?
Response: 10.8 µM

Prompt: Could you do the same for CC(C)CC(NC(=O)OCc1ccccc1)C(=O)NCCCCC(NC(=O)C(CCCCNC(=O)C(CC(C)C)NC(=O)OCc1ccccc1)NC(=O)C(CCCCNC(=O)C(CC(C)C)NC(=O)OCc1ccccc1)NC(=O)C(CCCCNC(=O)C(CC(C)C)NC(=O)OCc1ccccc1)NC(=O)OC(C)(C)C)C(=O)O (stereo unspecified) (Boc-K([Leu-Cbz])K([Leu-Cbz])K([Leu-Cbz])K([Leu-Cbz])-OH; configuration not given here) , please?
Response: > 25 µM

Prompt: Could you do the same for "CC[C@@]1(O)C(=O)OCc2c1cc1n(c2=O)Cc2c-1nc1ccccc1c2/C=N\NC(=O)C(N)=O" , please?
Response: 17.5 µM

Prompt: Could you do the same for CC(Nc1cc(=O)n(C)c(=O)[nH]1)c1ccccc1 (stereo unspecified) , please?
Response: > 100 µM

Prompt: Could you do the same for "CCOc1ccc(-n2c(=O)n3c(Nc4ccc(Cl)cc4)nc4c(c(=O)n(C)c(=O)n4C)n3c2=O)cc1" , please?
Response: > 100 µM

###

Tested on: HOP-62 NSCLC
Experiment: NCI tumour cell line growth inhibition, 48 h; in the data active = GI50 below about 0.43 µM; inactive = the rest
Your reply should match one of these outcome classes. 1 = active, 0 = inactive

Prompt: Which outcome was entered for the compound "Cc1cc(S(=O)(=O)Nc2nc3ccsc3c(=O)n2Cc2ccccc2)c(S)cc1Cl" in this test?
Response: 0

Prompt: Could you do the same for "O=C1C(Nc2cccc(O)c2)=C(Sc2ccc(Cl)cc2)C(=O)N1Cc1ccccc1" , please?
Response: 0

Prompt: Could you do the same for C#CCOc1cccc(Nc2ncnc3c2ncn3C2CCN(C(=O)CCl)C2)c1 (stereo not given) , please?
Response: 0

Prompt: Could you do the same for "CN(C)CCC(=O)NCc1c2nc3ccccc3nc2n2ccccc12" , please?
Response: 0

Prompt: Could you do the same for "Cc1sc2c(c1C)C(c1ccc(Cl)cc1)=N[C@@H](CC(=O)Nc1ccc(O)cc1)c1nnc(C)n1-2" , please?
Response: 1

###

System: HT29 colon
Assay: NCI tumour cell line growth inhibition, 48 h
observable: GI50

Prompt: Recorded GI50 for "CCCCc1oc2ccccc2c1C(=O)c1cc(I)c(OCCN(CC)CC)c(I)c1" , please?
Response: 1.97 µM

Prompt: Could you do the same for "O=C1/C(=C/c2ccc(C(F)(F)F)cc2)COc2ccc(O)cc21" , please?
Response: 2.03 µM

Prompt: Could you do the same for "CSc1ccc(C(=O)/C=C/c2ccc(F)cc2)cc1" , please?
Response: 19.5 µM

Prompt: Could you do the same for C[C@@H]1CCC2[C@@H](C)[C@H](OC(=O)CCC(=O)NCCNC(=O)Cc3cc(=O)oc4cc(N(C)C)ccc34)O[C@@H]3O[C@]4(C)CC[C@@H]1C23OO4 (stereo partly specified) , please?
Response: 1.05 µM

Prompt: Could you do the same for "Clc1ccc2c(NCCN3CCN(c4ccnc(N5CCCC5)n4)CC3)ccnc2c1" , please?
Response: 1.34 µM

Prompt: Could you do the same for "COc1ccc(Cn2cc3c(c2-c2ccccc2)CCc2cncnc2-3)cc1" , please?
Response: 3.9 µM

Prompt: Could you do the same for "Cc1cc(S(=O)(=O)Nc2nc3ccsc3c(=O)n2Cc2ccccc2)c(S)cc1Cl" , please?
Response: 43.7 µM

Prompt: Could you do the same for "CN(C)CCC(=O)NCc1c2nc3ccccc3nc2n2ccccc12" , please?
Response: 35.9 µM

Prompt: Could you do the same for "COc1cc(/C=N/O)nc(-c2ccccn2)c1" , please?
Response: 0.454 µM

Prompt: Could you do the same for "CC(=O)[CH-]C(=O)c1ccccc1.CC(=O)[CH-]C(=O)c1ccccc1.CC[O-].O=C1C=C([O-])C(=O)c2ccccc21.[Ti+4]" , please?
Response: 41 µM

Prompt: Could you do the same for COc1ccc2nc(C3=CN(C4OC(CO)C(O)C(O)C4O)C4C=CC=CC34)sc2c1 (stereo unspecified) , please?
Response: 59.9 µM
